tested on: Gram-Negative Organisms; assay: microbe, parasite or virus in culture; format: cell-based; settings: Klebsiella pneumoniae, ATCC43816, read-out: Minimal Inhibitory Concentration (MIC), K. pneumoniae ATCC 43816
MEASUREMENT_NAME: MIC

COMPOUND	MEASUREMENT_NAME	OBSERVED_MEASUREMENT
COc1ccc(NC(=O)OC[C@@H](C)[C@H]2OC(=O)[C@H]3CCCN3C(=O)c3coc(n3)CC(=O)C[C@H](O)/C=C(C)/C=C/CNC(=O)/C=C/[C@H]2C)cc1 [SA0110185]	MIC	> 64 µg/mL
CC1=C\[C@@H](O)CC(=O)Cc2nc(co2)C(=O)N2CCC[C@@H]2C(=O)O[C@H]([C@@H](C)COC(=O)Nc2ccc(C(F)(F)F)cc2)[C@H](C)/C=C/C(=O)NC\C=C\1 [SA0110044]	MIC	> 64 µg/mL

Report MIC for every entry below.
1. CC1=C\[C@@H](O)CC(=O)Cc2nc(co2)C(=O)N2CCC[C@@H]2C(=O)O[C@H]([C@H](C)COC(=O)Nc2cccnc2)[C@H](C)/C=C/C(=O)NC\C=C\1 [SA0110205]
2. CC1=C\[C@@H](O)CC(=O)Cc2nc(co2)C(=O)N2CCC[C@@H]2C(=O)O[C@H]([C@H](C)COC(=O)Nc2ccccc2)[C@H](C)/C=C/C(=O)NC\C=C\1 [SA0110196]

1. > 64 µg/mL
2. > 64 µg/mL

Tell me measured MIC for C[C@H]1COc2c(N3CCN(C)CC3)c(F)cc3c(=O)c(C(=O)O)cn1c23 [levofloxacin] please.
0.03 µg/mL

---

test system: Gram-Negative Organisms; test: microbe, parasite or virus in culture; type: cell-based; conditions: Klebsiella pneumoniae, ATCC43816, read-out: Minimal Inhibitory Concentration (MIC), K. pneumoniae ATCC 43816
Could you please report measured MIC for the items listed next?

COMPOUND	MIC
CC1=C\[C@@H](O)CC(=O)Cc2nc(co2)C(=O)N2CCC[C@@H]2C(=O)O[C@H]([C@H](C)COC(=O)Nc2cc3ccccc3cn2)[C@H](C)/C=C/C(=O)NC\C=C\1 [SA0110224]	> 64 µg/mL

Here are 2 compounds. What values of MIC were reported for them?
1. CC1=C\[C@@H](O)CC(=O)Cc2nc(co2)C(=O)N2CCC[C@@H]2C(=O)O[C@H]([C@H](C)COC(=O)Nc2ccnc(Br)c2)[C@H](C)/C=C/C(=O)NC\C=C\1 [SA0110206]
2. CC1=C\[C@@H](O)CC(=O)Cc2nc(co2)C(=O)N2CCC[C@@H]2C(=O)O[C@H]([C@@H](C)COC(=O)Nc2ccccn2)[C@H](C)/C=C/C(=O)NC\C=C\1 [SA0110120]

1: > 64 µg/mL; 2: > 64 µg/mL

List reported MIC for each of these compounds:
1. CC1=C\[C@@H](O)CC(=O)Cc2nc(co2)C(=O)N2CCC[C@@H]2C(=O)O[C@H]([C@@H](C)COC(=O)Nc2ccc(C)cc2)[C@H](C)/C=C/C(=O)NC\C=C\1 [SA0110037]
2. CC1=C\[C@@H](O)CC(=O)Cc2nc(co2)C(=O)N2CCC[C@@H]2C(=O)O[C@H]([C@H](C)COC(=O)Nc2ccn(C)n2)[C@H](C)/C=C/C(=O)NC\C=C\1 [SA0110218]

1: > 64 µg/mL; 2: > 64 µg/mL

Below are 2 compounds. Give each one its MIC.
1. CC1=C\[C@@H](O)CC(N)Cc2nc(cs2)C(=O)N2CCC[C@@H]2C(=O)O[C@H](C(C)C)[C@H](C)/C=C/C(=O)NC\C=C\1 (some centres unmarked) [SA0110268]
2. CC1=C\[C@@H](O)C[C@@H](O)Cc2nc(co2)C(=O)N[C@H](C)C(=O)O[C@H](C(C)C)[C@H](C)/C=C/C(=O)NC\C=C\1 [madumycin II, Madumycin II, reference compound]

> 64 µg/mL
> 64 µg/mL

Please go through the list and note MIC for each compound.
1. CC1=C\[C@@H](O)CC(=O)Cc2nc(co2)C(=O)N2CCC[C@@H]2C(=O)O[C@H]([C@@H](C)CN2CCC(N(C)C)CC2)[C@H](C)/C=C/C(=O)NC\C=C\1 [SA0110252]
2. CC1=C\[C@@H](O)CC(=O)Cc2nc(co2)C(=O)N2CCC[C@@H]2C(=O)O[C@H]([C@@H](C)COC(=O)Nc2ccccc2)[C@H](C)/C=C/C(=O)NC\C=C\1 [SA0110043]
3. CC1=C\[C@@H](O)CC(=O)Cc2nc(co2)C(=O)N2CCC[C@@H]2C(=O)O[C@H]([C@H](C)COC(=O)Nc2ccc(C)cc2)[C@H](C)/C=C/C(=O)NC\C=C\1 [SA0110184]
4. CC1=C\[C@@H](O)C[C@@H](F)Cc2nc(cs2)C(=O)N2CCC[C@@H]2C(=O)O[C@H](C(C)C)[C@H](C)/C=C/C(=O)NC\C=C\1 [SA0110279]

["> 64 µg/mL", "> 64 µg/mL", "> 64 µg/mL", "> 64 µg/mL"]

---

test system: H. influenzae ATCC 49247; assay: MIC, Gram-negative bacteria: H. influenzae ATCC 49247; format: cell-based; details: Haemophilus influenzae, ATCC49247, read-out: Minimal Inhibitory Concentration (MIC) H. influenzae ATCC 49247
MEASUREMENT_NAME: MIC

Observe how each entry below is paired with its result.
SMILES_REPR	MEASUREMENT_NAME	OBSERVED_MEASUREMENT
CC1=C\[C@@H](O)CC(=O)Cc2nc(co2)C(=O)N2CCC[C@@H]2C(=O)O[C@H]([C@H](C)COC(=O)Nc2coc(C)n2)[C@H](C)/C=C/C(=O)NC\C=C\1	MIC	16 µg/mL
CC1=C\[C@@H](O)CC(=O)Cc2nc(co2)C(=O)N[C@H](Cc2ccc(O)cc2)C(=O)O[C@H](C(C)C)[C@H](C)/C=C/C(=O)NC\C=C\1	MIC	> 64 µg/mL

Look up and report measured MIC for this entry: `CC1=C\[C@@H](O)CC(=O)Cc2nc(co2)C(=O)N2CCC[C@@H]2C(=O)O[C@H]([C@H](C)COC(=O)Nc2ccc(Br)nc2)[C@H](C)/C=C/C(=O)NC\C=C\1`
8 µg/mL

---

Task for the reader: assign each of the following molecules its reported log10(MIC).
test system: Gram-Negative Organisms; assay: microbe, parasite or virus in culture; assay type: cell-based; conditions: Escherichia coli, read-out: Minimal Inhibitory Concentration (MIC), E. coli permeability mutant BAS1314; IMP4213ZAB::TN10
The base-10 logarithm of MIC, taken with MIC in mg/L, is what appears here.

Below are worked cases with known answers.
MOLECULE	log10(MIC)
CC1=C\[C@@H](O)CC(=O)Cc2nc(co2)C(=O)N2CCC[C@@H]2C(=O)O[C@H]([C@@H](C)COC(=O)Nc2ccc3ccccc3n2)[C@H](C)/C=C/C(=O)NC\C=C\1	0.60
CC1=C\[C@@H](O)CC(=O)Cc2nc(co2)C(=O)N2CCC[C@@H]2C(=O)O[C@H]([C@@H](C)COC(=O)Nc2ccc(F)cc2)[C@H](C)/C=C/C(=O)NC\C=C\1	0.90
CC1=C\[C@@H](O)CC(=O)Cc2nc(co2)C(=O)N2CCC[C@@H]2C(=O)O[C@H]([C@@H](C)COC(=O)Nc2cc3ccccc3cn2)[C@H](C)/C=C/C(=O)NC\C=C\1	0.30

Your task in this section: give log10(MIC) for each listed record.
1. CC1=C\[C@@H](O)CC(=O)Cc2nc(co2)C(=O)N2CCC[C@@H]2C(=O)O[C@H]([C@@H](C)COC(=O)Nc2ccc(OC(F)(F)F)cc2)[C@H](C)/C=C/C(=O)NC\C=C\1
2. CC1=C\[C@@H](O)CC(=O)Cc2nc(co2)C(=O)N[C@H](C)C(=O)O[C@H](C(C)C)[C@H](C)/C=C/C(=O)NC\C=C\1 [madumycin I, Madumycin I, reference compound]
3. CC1=C\[C@@H](O)CC(=O)Cc2nc(co2)C(=O)N2CCC[C@@H]2C(=O)O[C@H]([C@@H](C)COC(=O)Nc2coc(C)n2)[C@H](C)/C=C/C(=O)NC\C=C\1
4. CC1=C\[C@@H](O)CC(=O)Cc2nc(co2)C(=O)N2CCC[C@@H]2C(=O)O[C@H]([C@@H](C)COC(=O)Nc2csc(C)n2)[C@H](C)/C=C/C(=O)NC\C=C\1
5. CC1=C\[C@@H](O)CC(=O)Cc2nc(co2)C(=O)N2CCC[C@@H]2C(=O)O[C@H]([C@@H](C)CO)[C@H](C)/C=C/C(=O)NC\C=C\1

0.90
-0.60
1.20
0.90
1.81

Please go through the list and note log10(MIC) for each molecule.
1. CC1=C\[C@@H](O)CC(=O)Cc2nc(co2)C(=O)N2CCC[C@@H]2C(=O)O[C@H]([C@H](C)COC(=O)Nc2ccc(OC(F)(F)F)cc2)[C@H](C)/C=C/C(=O)NC\C=C\1
2. CC1=C\[C@@H](O)CC(=O)Cc2nc(co2)C(=O)N2CCC[C@@H]2C(=O)O[C@H](C(C)(C)C)[C@H](C)/C=C/C(=O)NC\C=C\1
3. CC1=C\[C@@H](O)CC(=O)Cc2nc(co2)C(=O)N2CCC[C@@H]2C(=O)O[C@H]([C@@H](C)COC(=O)Nc2cccnc2)[C@H](C)/C=C/C(=O)NC\C=C\1
4. CC1=C\[C@@H](O)CC(=O)Cc2nc(co2)C(=O)N2CCC[C@@H]2C(=O)O[C@H]([C@H](C)COC(=O)Nc2csc(C)n2)[C@H](C)/C=C/C(=O)NC\C=C\1
5. CC1=C\[C@@H](O)CC(=O)Cc2nc(co2)C(=O)N2CCC[C@@H]2C(=O)O[C@H]([C@H](C)COC(=O)Nc2ccc(C(F)(F)F)cc2)[C@H](C)/C=C/C(=O)NC\C=C\1
6. COc1ccc(NC(=O)OC[C@@H](C)[C@H]2OC(=O)[C@H]3CCCN3C(=O)c3coc(n3)CC(=O)C[C@H](O)/C=C(C)/C=C/CNC(=O)/C=C/[C@H]2C)cc1
7. CC1=C\[C@@H](O)CC(=O)Cc2nc(co2)C(=O)N2CCC[C@@H]2C(=O)O[C@H]([C@@H](C)COC(=O)Nc2ccc(C(F)(F)F)cc2)[C@H](C)/C=C/C(=O)NC\C=C\1
8. CC1=C\[C@@H](O)CC(=O)Cc2nc(co2)C(=O)N2CCC[C@@H]2C(=O)O[C@H]([C@@H](C)COC(=O)Nc2ccc(Br)nc2)[C@H](C)/C=C/C(=O)NC\C=C\1

[0.90, 0.60, 1.51, 0.90, 0.60, 0.60, 1.20, 1.20]

I'm hoping you can list log10(MIC) for every molecule here, please.
1. CC1=C\[C@@H](O)CC(=O)Cc2nc(co2)C(=O)N2CCC[C@@H]2C(=O)O[C@H]([C@H](C)COC(=O)Nc2ccnc(Br)c2)[C@H](C)/C=C/C(=O)NC\C=C\1
2. CC1=C\[C@@H](O)CC(=O)Cc2nc(co2)C(=O)N2CCC[C@@H]2C(=O)O[C@H]([C@H](C)COC(=O)Nc2ccc3ccccc3n2)[C@H](C)/C=C/C(=O)NC\C=C\1

1: 0.30; 2: 0.30
